System: T47D
Test Method Notes: Antiproliferative activity against human T47D cells expressing estrogen receptor after 48 hrs by SRB assay
Assay type: functional
Property: GI50; scope: individual molecules
Write the answer as a number in µM, unit excluded.

Here's what some known entries look like.
CC1=C(C)C(=O)O[C@@H]([C@H]2CO[C@@]3(O)C[C@H]4[C@@H](C[C@H]5O[C@]56CCCC(=O)[C@]46C)[C@@H]4CC[C@]2(O)[C@]43C)C1    38
C[C@@H](C1=CC(=O)[C@H]2[C@@H]3C[C@H]4O[C@]45CC=CC(=O)[C@]5(C)[C@H]3CC[C@]12C)C1C[C@]2(C)O[C@]2(C)[C@H](O)O1 (some centres undefined) [SALPICHROLIDE D]    17
CCO[C@@]12C[C@H]3[C@@H](C[C@@H](O)[C@@]4(Cl)CC=CC(=O)[C@]34C)[C@@H]3CC[C@@](O)([C@H](C)[C@@H]([C@@H]4OC(=O)C(C)=C4C)O1)[C@]32C    3.9

GI50 reported for this molecule "CC1=C(C)C(=O)O[C@@H]([C@H]2CO[C@@]3(O)C[C@H]4[C@@H](C[C@H]5O[C@]56CC=CC(=O)[C@]46C)[C@@H]4CC[C@]2(O)[C@]43C)C1" : 4.1

* * *

Reported GI50 values for the following molecules.
Test Method Notes: Antiproliferative activity against human MCF7/BUS cells expressing estrogen receptor after 48 hrs by SRB assay
Assay type: functional
Form entry: value (µM) — number only.

CC1=C(C)[C@H]([C@H]2O[C@@]3(O)C[C@H]4[C@@H](C[C@@H](O)[C@@]5(Cl)CC=CC(=O)[C@]45C)[C@@H]4CC[C@@](O)([C@@H]2C)[C@]43C)OC1=O [JABOROSALACTONE 42]    2.6
C[C@@H](c1cc(O)c2c(c1)CC[C@H]1[C@H]2C[C@@H]2O[C@@]23CC=CC(=O)[C@]13C)[C@@H]1C[C@@H]2O[C@@H]2[C@H](O)O1 [SALPICHROLIDE G]    5.7

Then this molecule:
Consider CO[C@@]12C[C@H]3[C@@H](C[C@H]4O[C@]45CC=CC(=O)[C@]35C)[C@@H]3CC[C@@](O)([C@@H]([C@H]4CC(C)=C(C)C(=O)O4)CO1)[C@]32C [12-O-METHYLJABOROSALACTONE 38] . Its measured GI50 is 2.7

* * *

Attribute: GI50
Tested on: T47D
Test Method Notes: Antiproliferative activity against human T47D cells expressing estrogen receptor after 48 hrs by SRB assay
Type: functional

Sample records with GI50:
CC1=C(C)[C@H]([C@H]2O[C@@]3(O)C[C@@H]4c5c(O)cccc5[C@H](O)C[C@H]4[C@@H]4CC[C@@](O)([C@@H]2C)[C@]43C)OC1=O    > 100 µM
CO[C@@]12C[C@@H]3c4c(O)cccc4[C@H](O)C[C@H]3[C@@H]3CC[C@@](O)([C@H](C)[C@@H]([C@@H]4OC(=O)C(C)=C4C)O1)[C@]32C    > 100 µM

Looking up "C[C@]12CC[C@H]3C(=C1[C@H]1C[C@@]2(O)[C@](C)([C@H]2C[C@]4(C)O[C@]4(C)[C@H](O)O2)C1)C[C@@H](O)[C@@]1(O)CC=CC(=O)[C@]31C" , I found its GI50 recorded as > 100 µM
